Would you kindly list IC50 for each of these molecules?
- tested-on: UniProtKB P31639
- Sequence (P31639 whole entry): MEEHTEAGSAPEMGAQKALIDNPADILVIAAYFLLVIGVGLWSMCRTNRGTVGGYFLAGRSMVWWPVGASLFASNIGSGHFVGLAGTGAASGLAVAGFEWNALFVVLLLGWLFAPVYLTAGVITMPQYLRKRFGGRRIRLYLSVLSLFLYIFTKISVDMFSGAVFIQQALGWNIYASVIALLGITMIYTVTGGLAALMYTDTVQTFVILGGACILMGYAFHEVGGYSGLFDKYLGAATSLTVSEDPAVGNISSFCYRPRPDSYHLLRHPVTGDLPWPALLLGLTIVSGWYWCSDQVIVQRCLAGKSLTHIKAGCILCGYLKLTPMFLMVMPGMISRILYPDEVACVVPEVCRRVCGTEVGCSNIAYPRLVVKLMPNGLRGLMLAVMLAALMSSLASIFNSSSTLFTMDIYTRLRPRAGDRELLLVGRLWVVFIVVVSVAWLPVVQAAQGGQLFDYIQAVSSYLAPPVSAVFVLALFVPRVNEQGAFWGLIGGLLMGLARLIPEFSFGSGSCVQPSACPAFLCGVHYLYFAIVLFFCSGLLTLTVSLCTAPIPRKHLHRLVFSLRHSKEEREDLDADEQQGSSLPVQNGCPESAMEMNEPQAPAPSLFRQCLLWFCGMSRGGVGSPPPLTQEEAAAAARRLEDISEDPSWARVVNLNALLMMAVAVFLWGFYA
- test-name: in-vitro assay: inhibition of sodium dependent [14C]-AMG uptake into CHO cells stably expressing human SGLT-2
- applied-conditions: CHO cells stably expressing human SGLT-2; [14C]-AMG uptake, 37°C, 1hr
Provide only the numeric value, understood in nM.

Query :: Item under review: OC[C@H]1O[C@@H](c2ccc(Cl)c(Cc3ccc(O[C@H]4C[C@@H]5C[C@@H]5C4)cc3)c2)[C@H](O)[C@@H](O)[C@@H]1O [Compound represented by formula (II)] . Reported IC50?
Result :: 2.5

Query :: Also check OC[C@H]1OC(c2ccc(Cl)c(Cc3ccc(OC4CC5CC5C4)cc3)c2)[C@H](O)[C@@H](O)[C@@H]1O (some centres unmarked) [Reference compound 1]
Result :: 3.63

Query :: Also check OC[C@H]1O[C@H](c2ccc(Cl)c(Cc3ccc(O[C@H]4C[C@@H]5C[C@@H]5C4)cc3)c2)[C@H](O)[C@@H](O)[C@@H]1O [Compound represented by formula (IV)]
Result :: 1110

Query :: Also check OC[C@H]1O[C@@H](c2ccc(Cl)c(Cc3ccc(O[C@@H]4C[C@@H]5C[C@@H]5C4)cc3)c2)[C@H](O)[C@@H](O)[C@@H]1O [Compound represented by formula (III)]
Result :: 7.83

Query :: Also check OC[C@H]1O[C@H](c2ccc(Cl)c(Cc3ccc(O[C@@H]4C[C@@H]5C[C@@H]5C4)cc3)c2)[C@H](O)[C@@H](O)[C@@H]1O [Compound represented by formula (V)]
Result :: 282

* * *

- test-name: rat in-vivo pharmacokinetic assay (PO)
- applied-conditions: Sprague-Dawley (SD), male SD rats, 10 mg/kg, plasma, area under curve from time=0→t
observable: AUC(0-t)
Answer as a quantity: numeral, then unit.

Query :: Item under review: OC[C@H]1OC(c2ccc(Cl)c(Cc3ccc(OC4CC5CC5C4)cc3)c2)[C@H](O)[C@@H](O)[C@@H]1O (some centres unmarked) [Reference compound 1] . Reported AUC(0-t)?
Result :: 69600 ng·h/mL

Query :: Also check OC[C@H]1O[C@@H](c2ccc(Cl)c(Cc3ccc(OC4CC5CC5C4)cc3)c2)[C@H](O)[C@@H](O)[C@@H]1O (some centres unmarked) [Reference compound 2]
Result :: 69300 ng·h/mL

* * *

- test-name: rat in-vivo pharmacokinetic assay (PO)
- applied-conditions: Sprague-Dawley (SD), male SD rats, 10 mg/kg, peak concentration in the plasma
observable: Cmax (ng/mL)
Provide only the numeric value, understood in ng/mL.

Query :: Item under review: OC[C@H]1OC(c2ccc(Cl)c(Cc3ccc(OC4CC5CC5C4)cc3)c2)[C@H](O)[C@@H](O)[C@@H]1O (some centres unmarked) [Reference compound 1] . Reported Cmax?
Result :: 4140

Query :: Also check OC[C@H]1O[C@@H](c2ccc(Cl)c(Cc3ccc(OC4CC5CC5C4)cc3)c2)[C@H](O)[C@@H](O)[C@@H]1O (some centres unmarked) [Reference compound 2]
Result :: 4980

Value source: patent EP2891654B1
